procedure details: mouse plasma protein binding (PPB) assay
Type: in vitro ADME
test conditions: average, read-out: Mouse Plasma Protein Binding % Bound Avg (converted)
Description: We have adapted a previously reported cyclooxygenase enzymatic assay utilizing LCMS quantification of PGE2 as the product of COX-1 and COX2 catalyzed conversion of arachidonic acid to evaluate the binding properties of newly synthesized ligands [Cao, 2011]. […] Using these enzymatic assays, we have evaluated>200 newly synthesized ligands against COX2 and >20 ligands against COX-1. […]
Hi, to clarify the labels: met covers fraction unbound from 0.02 upward, not met covers anything below 0.02.

Reference set, count: 6
>  <compound>
CS(=O)(=O)c1ccc(-c2cccc(NCc3ccoc3)n2)cc1

>  <category>
met

$$$$
>  <compound>
COc1ncc(NCc2cccs2)nc1-c1ccc(S(C)(=O)=O)cc1

>  <category>
met

$$$$
>  <compound>
NS(=O)(=O)c1ccc(-c2cncc(OCc3cccs3)n2)cc1

>  <category>
not met

$$$$
>  <compound>
CS(=O)(=O)c1ccc(-c2cncc(SCc3cccs3)n2)cc1

>  <category>
not met

$$$$
>  <compound>
CS(=O)(=O)c1ccc(-c2ccc3ccn(Cc4ccoc4)c3n2)cc1

>  <category>
not met

$$$$
>  <compound>
CN(Cc1cccs1)c1cncc(-c2ccc(S(C)(=O)=O)cc2)n1

>  <category>
not met

$$$$

Textbook exercise: given the entry `Cc1ccsc1CNc1cccc(-c2ccc(S(C)(=O)=O)cc2)n1` , state whether its fraction unbound is greater than or equal to 0.02. not met

Repeat with `COc1cc(NCc2cccs2)cc(-c2ccc(S(C)(=O)=O)cc2)n1` not met

What would you report for `CS(=O)(=O)c1ccc(-c2cccc(NCc3ccco3)n2)cc1` ? met

Please give the result for `CCOc1ncc(NCc2cccs2)nc1-c1ccc(S(C)(=O)=O)cc1` too. not met

And what about the compound `CS(=O)(=O)c1ccc(-c2nc(NCc3cccs3)cc3ccoc23)cc1` ? not met
